Cited source: ChEMBL document CHEMBL5576134

Test system: MIA PaCa-2
runDescription: Preferential cytotoxicity against human MIA PaCa-2 cells in nutrient-deprived medium measured after 24 hrs by WST-8 cell counting analysis
Assay type: functional
readoutKind: PC50 (µM)
State the answer as a number, implicitly in µM.

INSERT INTO assay_data (compound, readoutkind, unitabbreviation, recordedmeasurement) VALUES
  ('COc1cc(O)c(C(=O)[C@H]2CC=C(CCC=C(C)C)C[C@@H]2c2cc(F)cc(F)c2)c(O)c1', 'PC50', 'µM', 0.79),
  ('COc1cc(O)c(C(=O)[C@H]2CC=C(CCC=C(C)C)C[C@@H]2c2ccccc2F)c(O)c1 (relative stereo)', 'PC50', 'µM', 0.85),
  ('CC(C)=CCCC1=CC[C@H](C(=O)c2c(O)cccc2O)[C@@H](c2ccc(Cl)cc2Cl)C1 (relative stereo)', 'PC50', 'µM', 0.78);

Consider now this further compound.
Find the measured PC50 of COc1cc(O)c(C(=O)[C@H]2CC=C(CCC=C(C)C)C[C@@H]2c2cc(F)ccc2F)c(O)c1 (relative stereo) and report it.
0.81

* * *

# IC50 per record follows
Test system: PANC-1
runDescription: Preferential cytotoxicity against human PANC-1 cells in DMEM measured after 24 hrs by WST-8 cell counting analysis
Type: functional, cell-based
testConditions: PANC-1, 24 h

Illustrative cases are given below, each with its answer.
INSERT INTO results (molecule, systemname, recordedmeasurement) VALUES
  ('COc1ccc(C(=O)[C@H]2CC=C(CCC=C(C)C)C[C@@H]2c2ccccc2)c(O)c1 (relative stereo)', 'PANC-1', '24.2 µM'),
  ('COc1cc(O)c(C(=O)[C@H]2CC=C(CCC=C(C)C)C[C@@H]2c2ccc(F)cc2)c(O)c1 (relative stereo)', 'PANC-1', '> 100 µM'),
  ('CC(C)=CCCC1=CC[C@H](C(=O)c2c(O)cccc2O)[C@@H](c2cccc(Cl)c2Cl)C1 (relative stereo)', 'PANC-1', '10.5 µM');

Name the recorded IC50 of the item COc1ccc([C@H]2CC(CCC=C(C)C)=CC[C@@H]2C(=O)c2c(O)cc(OC)cc2O)cc1 (relative stereo) in your answer.
50 µM

Please indicate IC50 recorded for CC(C)=CCCC1=CC[C@H](C(=O)c2c(O)cccc2O)[C@@H](c2c(F)cccc2F)C1 (single isomer, unassigned)
21.6 µM

Could you please provide reported IC50 for CC(C)=CCCC1=CC[C@H](C(=O)c2c(O)cccc2O)[C@@H](c2ccccc2Cl)C1 (relative stereo) ? Thanks!
15.4 µM

For the molecule COc1ccc([C@H]2CC(CCC=C(C)C)=CC[C@@H]2C(=O)c2c(O)cccc2O)cc1 (relative stereo) , give its measured IC50 value.
56.7 µM

* * *

runDescription: Selectivity index, ratio of IC50 for preferential cytotoxicity against human MIA PaCa-2 cells in DMEM to PC50 for preferential cytotoxicity against human MIA PaCa-2 cells in nutrient-deprived medium
Assay type: functional
Respond with yes for Selectivity Index values of 30 and above, no for values below.

Solved cases below.
INSERT INTO assay_data (compound, categorylabel) VALUES
  ('CC(C)=CCCC1=CC[C@H](C(=O)c2c(O)cccc2O)[C@@H](c2cccc(F)c2F)C1 (relative stereo)', 'yes'),
  ('COc1ccc([C@H]2CC(CCC=C(C)C)=CC[C@@H]2C(=O)c2c(O)cc(OC)cc2O)cc1 (relative stereo)', 'yes'),
  ('COc1cc(O)c(C(=O)[C@H]2CC=C(CCC=C(C)C)C[C@@H]2c2ccccc2)c(O)c1', 'no'),
  ('CC(C)=CCCC1=CC[C@H](C(=O)c2c(O)cccc2O)[C@@H](c2ccccc2Cl)C1 (relative stereo)', 'no'),
  ('COc1cc(O)c(C(=O)[C@H]2CC=C(CCC=C(C)C)C[C@@H]2c2ccccc2F)c(O)c1 (relative stereo)', 'yes');

Please indicate if the recorded Selectivity Index for COc1cc(O)c(C(=O)[C@H]2CC=C(CCC=C(C)C)C[C@@H]2c2cccc(F)c2)c(O)c1 (relative stereo) meets or exceeds 30.
yes

Given CC(C)=CCCC1=CC[C@H](C(=O)c2c(O)cccc2O)[C@@H](c2cccc(Cl)c2Cl)C1 (relative stereo) , state whether its Selectivity Index is at least 30.
yes

Selectivity Index >= 30 for CC(C)=CCCC1=CC[C@H](C(=O)c2c(O)cccc2O)[C@@H](c2ccccc2)C1 (relative stereo) ?
yes

Does Selectivity Index meet or surpass 30 for COc1cc(O)c(C(=O)[C@H]2CC=C(CCC=C(C)C)C[C@@H]2c2cccc(F)c2F)c(O)c1 (relative stereo) ?
yes

Test whether the compound COc1cc(O)c(C(=O)[C@H]2CC=C(CCC=C(C)C)C[C@@H]2c2ccc(C)cc2)c(O)c1 (relative stereo) records Selectivity Index of 30 or higher.
no

Hello, I need to know if CC(C)=CCCC1=CC[C@H](C(=O)c2c(O)cccc2O)[C@@H](c2cccc(F)c2)C1 (relative stereo) has measured Selectivity Index not below 30. Thanks!
no

# check: Selectivity Index of CC(C)=CCCC1=CC[C@H](C(=O)c2c(O)cccc2O)[C@@H](c2cccc(Cl)c2)C1 (relative stereo) is greater than or equal to 30
no

Identify whether the reported Selectivity Index of the following compound is 30 or greater: CC(C)=CCCC1=CC[C@H](C(=O)c2c(O)cccc2O)[C@@H](c2ccc(Cl)cc2Cl)C1 (relative stereo)
no

Record CC(C)=CCCC1=CC[C@H](C(=O)c2c(O)cccc2O)[C@@H](c2ccc(F)c(F)c2)C1 (relative stereo) ; criterion: Selectivity Index no lower than 30. Met?
yes

For this compound, is measured Selectivity Index 30 or higher? CC(C)=CCCC1=CC[C@H](C(=O)c2c(O)cccc2O)[C@@H](c2c(F)cccc2F)C1 (single isomer, unassigned)
no

* * *

Catalogue of compounds with associated pIC50
Tested on: PANC-1
runDescription: Preferential cytotoxicity against human PANC-1 cells in DMEM measured after 24 hrs by WST-8 cell counting analysis
Format: functional, cell-based
testConditions: PANC-1, 24 h
Note on pIC50: it is the negative log10 of concentration, concentration in mol/L.

INSERT INTO results (compound, recordedmeasurement) VALUES
  ('CC(C)=CCCC1=CC[C@H](C(=O)c2c(O)cccc2O)[C@@H](c2cc(F)cc(F)c2)C1 (relative stereo)', 4.98),
  ('COc1cc(O)c(C(=O)[C@H]2CC=C(CCC=C(C)C)C[C@@H]2c2cc(F)ccc2F)c(O)c1 (relative stereo)', 4.77);

Give reported pIC50 value for CC(C)=CCCC1=CC[C@H](C(=O)c2c(O)cccc2O)[C@@H](c2ccc(Cl)cc2Cl)C1 (relative stereo)
5.00

* * *

Test system: MIA PaCa-2
runDescription: Preferential cytotoxicity against human MIA PaCa-2 cells in nutrient-deprived medium measured after 24 hrs by WST-8 cell counting analysis
Assay type: functional
Assign a class from recorded PC50; defined classes: band A: < 0.7 µM; band B: ≥ 0.7 µM and < 2 µM; band C: ≥ 2 µM

Look over these answered cases.
INSERT INTO measurements (compound, systemname, categorylabel) VALUES
  ('COc1cc(O)c(C(=O)[C@H]2CC=C(CCC=C(C)C)C[C@@H]2c2ccc(C)cc2)c(O)c1 (relative stereo)', 'MIA PaCa-2', 'band C'),
  ('COc1cccc(OC)c1C(=O)[C@H]1CC=C(CCC=C(C)C)C[C@@H]1c1ccccc1 (relative stereo)', 'MIA PaCa-2', 'band C'),
  ('CC(C)=CCCC1=CC[C@H](C(=O)c2c(O)cccc2O)[C@@H](c2cccc(F)c2)C1 (relative stereo)', 'MIA PaCa-2', 'band B');

For this compound, which bin applies? CC(C)=CCCC1=CC[C@H](C(=O)c2c(O)cccc2O)[C@@H](c2cccc(Cl)c2Cl)C1 (relative stereo)
band A

Please report the category associated with COc1cc(O)c(C(=O)[C@H]2CC=C(CCC=C(C)C)C[C@@H]2c2cccc(F)c2)c(O)c1 (relative stereo) , nothing else.
band B

Which class is correct for the following compound? COc1cc(O)c(C(=O)[C@H]2CC=C(CCC=C(C)C)C[C@@H]2c2ccc(F)cc2F)c(O)c1 (relative stereo)
band A

Class? Entry: CC(C)=CCCC1=CC[C@H](C(=O)c2c(O)cccc2O)[C@@H](c2ccccc2F)C1 (relative stereo)
band B

Which PC50 band matches CC(C)=CCCC1=CC[C@H](C(=O)c2c(O)cccc2O)[C@@H](c2c(F)cccc2F)C1 (single isomer, unassigned) ?
band B

Which category does the recorded PC50 put CC(C)=CCCC1=CC[C@H](C(=O)c2c(O)cccc2O)[C@@H](c2cccc(F)c2F)C1 (relative stereo) in?
band A

* * *

Test system: MIA PaCa-2
runDescription: Preferential cytotoxicity against human MIA PaCa-2 cells in nutrient-deprived medium measured after 24 hrs by WST-8 cell counting analysis
Format: functional
Threshold 1 µM. PC50 below it: rule met. PC50 at it or above: rule not met.

Known results for compounds:
INSERT INTO assay_data (compound, categorylabel) VALUES
  ('CC(C)=CCCC1=CC[C@H](C(=O)c2c(O)cccc2O)[C@@H](c2ccccc2)C1 (relative stereo)', 'rule not met'),
  ('CC(C)=CCCC1=CC[C@H](C(=O)c2c(O)cccc2O)[C@@H](c2ccc(Cl)cc2)C1 (relative stereo)', 'rule not met'),
  ('CC(C)=CCCC1=CC[C@H](C(=O)c2c(O)cccc2O)[C@@H](c2ccc(F)cc2F)C1 (relative stereo)', 'rule met'),
  ('CC(C)=CCCC1=CC[C@H](C(=O)c2c(O)cccc2O)[C@@H](c2cccc(Cl)c2)C1 (relative stereo)', 'rule not met');

Alright, here's another compound for you.
Does this compound meet the criterion PC50 < 1 µM? COc1cc(O)c(C(=O)[C@H]2CC=C(CCC=C(C)C)C[C@@H]2c2c(F)cccc2F)c(O)c1 (relative stereo)
rule not met
